In this section we review reported Bliss interaction score values for a set of molecules.
Test system: S. aureus Newman
Assay: Bliss interaction score (quartile over a dose matrix) (fitness difference); higher = more antagonism (negative = synergy)
When you answer, write just the number.

>>> observed("O=C(O)c1cn(C2CC2)c2cc(N3CCNCC3)c(F)cc2c1=O [Ciprofloxacin] + CC1=C\\[C@@H](O)CC(=O)Cc2nc(co2)C(=O)N2CCC=C2C(=O)O[C@H](C(C)C)[C@H](C)/C=C/C(=O)NC\\C=C\\1 [Virginiamycin M1]")
0.0616

Sample COc1cccc2c1C(=O)c1c(O)c3c(c(O)c1C2=O)C[C@@](O)(C(=O)CO)C[C@@H]3O[C@H]1C[C@H](N)[C@H](O)[C@H](C)O1 [Doxorubicin] + CC(=O)O[C@H]1C[C@@]2(C)[C@@H](C[C@@H](O)[C@H]3[C@@]4(C)CC[C@@H](O)[C@@H](C)[C@@H]4CC[C@@]32C)/C1=C(\CCC=C(C)C)C(=O)O [Fusidic acid] , system: S. aureus Newman. Its Bliss interaction score is 0.0367

Tested on S. aureus Newman: COc1ccc(C[C@H](N)C(=O)N[C@H]2[C@@H](O)[C@H](n3cnc4c(N(C)C)ncnc43)O[C@@H]2CO)cc1 [Puromycin] + Oc1cc(Cl)ccc1Oc1ccc(Cl)cc1Cl [Triclosan] . Observed Bliss interaction score: 0.0281

----------
Tested on: B. subtilis 168
Assay: fitness (endpoint OD595 vs no drug) (fraction); higher = more growth
Settings: first compound 0.039 µg/mL; partner 0.125 µg/mL
recorded.endpoint: fitness
Please respond with just the number, no unit label.

>>> observed("CN(C)c1cc(NC(=O)CNC(C)(C)C)c(O)c2c1C[C@H]1C[C@H]3[C@H](N(C)C)C(O)=C(C(N)=O)C(=O)[C@@]3(O)C(O)=C1C2=O [Tigecycline] + CC1=C\\[C@@H](O)CC(=O)Cc2nc(co2)C(=O)N2CCC=C2C(=O)O[C@H](C(C)C)[C@H](C)/C=C/C(=O)NC\\C=C\\1")
0.95

Response field fitness (B. subtilis 168) for item O=C(O)c1cn(C2CC2)c2cc(N3CCNCC3)c(F)cc2c1=O [Ciprofloxacin] + COc1c(N2C[C@@H]3CCCN[C@@H]3C2)c(F)cc2c(=O)c(C(=O)O)cn(C3CC3)c12 [Moxifloxacin] : 0.0269

# O=C(O)c1cn(C2CC2)c2cc(N3CCNCC3)c(F)cc2c1=O [Ciprofloxacin] + C[C@H]1COc2c(N3CCN(C)CC3)c(F)cc3c(=O)c(C(=O)O)cn1c23 [Levofloxacin] with B. subtilis 168: fitness is 0.0401

Tested on B. subtilis 168, the item O=C(O)c1cn(C2CC2)c2cc(N3CCNCC3)c(F)cc2c1=O [Ciprofloxacin] + COc1cc(Cc2cnc(N)nc2N)cc(OC)c1OC [Trimethoprim] showed fitness equal to 0.424

Item: O=C(O)c1cn(C2CC2)c2cc(N3CCNCC3)c(F)cc2c1=O [Ciprofloxacin] + CCC[C@@H]1C[C@@H](C(=O)N[C@@H]([C@H]2O[C@H](SC)[C@H](O)[C@@H](O)[C@H]2O)[C@H](C)Cl)N(C)C1 [Clindamycin] | System: B. subtilis 168 | fitness: 0.311

----------
Let's look at some compounds and their measured fitness.
Test system: S. pneumoniae D39V
Test: fitness (endpoint OD595 vs no drug) (fraction); higher = more growth
Settings: first compound 0.375 µg/mL; partner 1 µg/mL

Look over these answered cases.
>>> observed("CN(C)[C@@H]1C(O)=C(C(N)=O)C(=O)[C@@]2(O)C(O)=C3C(=O)c4c(O)ccc(Cl)c4[C@@](C)(O)[C@H]3C[C@@H]12 [Chlortetracycline] + COc1ccc(C[C@H](N)C(=O)N[C@H]2[C@@H](O)[C@H](n3cnc4c(N(C)C)ncnc43)O[C@@H]2CO)cc1 [Puromycin]")
0.0657
>>> observed("CN(C)[C@@H]1C(O)=C(C(N)=O)C(=O)[C@@]2(O)C(O)=C3C(=O)c4c(O)ccc(Cl)c4[C@@](C)(O)[C@H]3C[C@@H]12 [Chlortetracycline] + Cc1cc(NS(=O)(=O)c2ccc(N)cc2)no1 [Sulfamethoxazol]")
0.0312

Per the records, this compound ( CN(C)[C@@H]1C(O)=C(C(N)=O)C(=O)[C@@]2(O)C(O)=C3C(=O)c4c(O)ccc(Cl)c4[C@@](C)(O)[C@H]3C[C@@H]12 [Chlortetracycline] + CC1=C\[C@@H](O)CC(=O)Cc2nc(co2)C(=O)N2CCC=C2C(=O)O[C@H](C(C)C)[C@H](C)/C=C/C(=O)NC\C=C\1 [Virginiamycin M1] ) has fitness equal to 0.0379

Entry CN(C)[C@@H]1C(O)=C(C(N)=O)C(=O)[C@@]2(O)C(O)=C3C(=O)c4c(O)ccc(Cl)c4[C@@](C)(O)[C@H]3C[C@@H]12 [Chlortetracycline] + CC1=C(C(=O)O)N2C(=O)[C@@H](NC(=O)[C@H](N)c3ccccc3)[C@H]2SC1 [Cephalexin] , fitness reported as 0.0846

----------
Tested on: S. aureus Newman
Experiment: Bliss interaction score (quartile over a dose matrix) (fitness difference); higher = more antagonism (negative = synergy)
recorded.endpoint: Bliss interaction score
When you answer, write just the number.

// solved cases for Bliss interaction score follow
>>> observed("CC(=O)Oc1ccccc1C(=O)O [Acetylsalicylicacid] + Cc1cc(NS(=O)(=O)c2ccc(N)cc2)no1 [Sulfamethoxazol]")
-0.0624
>>> observed("N#CC(C#N)=NNc1cccc(Cl)c1 [CCCP] + O=C(O[C@@H]1Cc2c(O)cc(O)cc2O[C@@H]1c1cc(O)c(O)c(O)c1)c1cc(O)c(O)c(O)c1 [EGCG]")
-0.0367
>>> observed("CC1(C)S[C@@H]2[C@H](NC(=O)Cc3ccccc3)C(=O)N2[C@H]1C(=O)O [PenicillinG] + CN[C@@H]1[C@H](O)[C@H](NC)[C@H]2O[C@@]3(O)C(=O)C[C@@H](C)O[C@H]3O[C@@H]2[C@H]1O [Spectinomycin]")
-0.0496
>>> observed("CO/N=C(\\C(=O)N[C@@H]1C(=O)N2C(C(=O)O)=C(COC(C)=O)CS[C@H]12)c1csc(N)n1 [Cefotaxime] + CCC[C@@H]1C[C@@H](C(=O)N[C@@H]([C@H]2O[C@H](SC)[C@H](O)[C@@H](O)[C@H]2O)[C@H](C)Cl)N(C)C1 [Clindamycin]")
-0.0656

Next, consider the following compound.
Lab entry: S. aureus Newman assay, compound N#CC(C#N)=NNc1cccc(Cl)c1 [CCCP] + CO/N=C(\C(=O)N[C@@H]1C(=O)N2C(C(=O)O)=C(COC(N)=O)CS[C@H]12)c1ccco1 [Cefuroxime] , Bliss interaction score = -0.112

----------
Tested on: S. pneumoniae D39V
Experiment: Bliss interaction score (quartile over a dose matrix) (fitness difference); higher = more antagonism (negative = synergy)
recorded.endpoint: Bliss interaction score
Form rule: numeric answer, no unit written next to it.

>>> observed("N#CC(C#N)=NNc1cccc(Cl)c1 [CCCP] + CC1(C)S[C@@H]2[C@H](NC(=O)Cc3ccccc3)C(=O)N2[C@H]1C(=O)O [PenicillinG]")
0.0767

Case CO/N=C(\C(=O)N[C@@H]1C(=O)N2C(C(=O)O)=C(COC(C)=O)CS[C@H]12)c1csc(N)n1 [Cefotaxime] + CCC[C@@H]1C[C@@H](C(=O)N[C@@H]([C@H]2O[C@H](SC)[C@H](O)[C@@H](O)[C@H]2O)[C@@H](C)O)N(C)C1 [Lincomycin] , S. pneumoniae D39V, Bliss interaction score recorded as 0.105

Lab note: compound O=C(O)c1cn(C2CC2)c2cc(N3CCNCC3)c(F)cc2c1=O [Ciprofloxacin] + Cc1cc(NS(=O)(=O)c2ccc(N)cc2)no1 [Sulfamethoxazol] tested on S. pneumoniae D39V; recorded Bliss interaction score was 0.0466

The reported Bliss interaction score value, S. pneumoniae D39V, for CO/N=C(\C(=O)N[C@@H]1C(=O)N2C(C(=O)O)=C(COC(N)=O)CS[C@H]12)c1ccco1 [Cefuroxime] + Cc1cc(NS(=O)(=O)c2ccc(N)cc2)no1 [Sulfamethoxazol] reads -0.0409

The compound CO/N=C(\C(=O)N[C@@H]1C(=O)N2C(C(=O)O)=C(COC(N)=O)CS[C@H]12)c1ccco1 [Cefuroxime] + Oc1cc(Cl)ccc1Oc1ccc(Cl)cc1Cl [Triclosan] , tested on S. pneumoniae D39V, showed Bliss interaction score of 0.0619

----------
System: S. aureus DSM 20231
Experiment: Bliss interaction score (quartile over a dose matrix) (fitness difference); higher = more antagonism (negative = synergy)
Rule: Met for Bliss interaction score not less than -0.2, Not met for anything less.

Completed entries (count: 3):
>>> qualitative_label("C[C@H]1c2cccc(O)c2C(=O)C2=C(O)[C@]3(O)C(=O)C(C(N)=O)=C(O)[C@@H](N(C)C)[C@@H]3[C@@H](O)[C@@H]21 [Doxycycline] + CCC[C@@H]1C[C@@H](C(=O)N[C@@H]([C@H]2O[C@H](SC)[C@H](O)[C@@H](O)[C@H]2O)[C@@H](C)O)N(C)C1 [Lincomycin]")
"Not met"
>>> qualitative_label("CC(=O)Oc1cccc2c1C(=O)c1c(OC(C)=O)cc(C(=O)O)cc1C2=O [Diacerein] + COc1cc(Cc2cnc(N)nc2N)cc(OC)c1OC [Trimethoprim]")
"Not met"
>>> qualitative_label("Cc1ncc([N+](=O)[O-])n1CCO [Metronidazole] + C/C(=C\\C(=O)OCCCCCCCCC(=O)O)C[C@@H]1OC[C@H](C[C@@H]2O[C@H]2[C@@H](C)[C@H](C)O)[C@@H](O)[C@H]1O [Pseudomonic acid]")
"Met"

Say whether CO/N=C(\C(=O)N[C@@H]1C(=O)N2C(C(=O)O)=C(COC(N)=O)CS[C@H]12)c1ccco1 [Cefuroxime] + COc1cccc2c1C(=O)c1c(O)c3c(c(O)c1C2=O)C[C@@](O)(C(=O)CO)C[C@@H]3O[C@H]1C[C@H](N)[C@H](O)[C@H](C)O1 [Doxorubicin] shows Bliss interaction score of -0.2 or more. Met

Check this compound for Bliss interaction score at or above -0.2: COc1ccc(C[C@H](N)C(=O)N[C@H]2[C@@H](O)[C@H](n3cnc4c(N(C)C)ncnc43)O[C@@H]2CO)cc1 [Puromycin] + CC[C@H]1OC(=O)[C@H](C)C(=O)[C@H](C)[C@@H](O[C@@H]2O[C@H](C)C[C@H](N(C)C)[C@H]2O)[C@](C)(OC)C[C@@H](C)C(=O)[C@H](C)[C@H]2N(CCCCn3cnc(-c4cccnc4)c3)C(=O)O[C@]12C [Telithromycin] Met

Entry O=C(O)c1cn(C2CC2)c2cc(N3CCNCC3)c(F)cc2c1=O [Ciprofloxacin] + COc1cc2ncnc(Nc3ccc(F)c(Cl)c3)c2cc1OCCCN1CCOCC1 [Gefitinib] : is its Bliss interaction score no less than -0.2? Not met

# check: Bliss interaction score of N#CC(C#N)=NNc1cccc(Cl)c1 [CCCP] + CN(C)[C@@H]1C(O)=C(C(N)=O)C(=O)[C@@]2(O)C(O)=C3C(=O)c4c(O)ccc(Cl)c4[C@@](C)(O)[C@H]3C[C@@H]12 [Clortetracycline] is greater than or equal to -0.2 Met

Confirm if Bliss interaction score reported for the compound O=C(O)c1cn(C2CC2)c2cc(N3CCNCC3)c(F)cc2c1=O [Ciprofloxacin] + Cc1c(Cl)cccc1Nc1ccccc1C(=O)O [Tolfenamic] is -0.2 or above. Met
